pKi values, listed per item
Molecular target: α1a-AR (Homo sapiens, UniProt P35348)
Construct: expressed in transfected cells; host or cells: COS-7 cells (African Green monkey kidney), membranes
Sequence (P35348 1-466): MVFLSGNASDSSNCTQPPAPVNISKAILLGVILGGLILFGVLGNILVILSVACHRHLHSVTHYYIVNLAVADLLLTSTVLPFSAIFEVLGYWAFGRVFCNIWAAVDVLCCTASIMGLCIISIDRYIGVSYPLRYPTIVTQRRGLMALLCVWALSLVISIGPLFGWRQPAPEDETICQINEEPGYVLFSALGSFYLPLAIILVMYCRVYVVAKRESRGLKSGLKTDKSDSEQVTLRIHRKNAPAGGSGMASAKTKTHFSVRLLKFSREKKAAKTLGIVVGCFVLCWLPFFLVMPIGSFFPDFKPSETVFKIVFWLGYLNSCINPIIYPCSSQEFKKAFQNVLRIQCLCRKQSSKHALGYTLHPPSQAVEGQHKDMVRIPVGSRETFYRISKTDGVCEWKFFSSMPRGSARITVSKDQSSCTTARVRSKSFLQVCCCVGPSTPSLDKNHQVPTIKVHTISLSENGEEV
Test: α1-Adrenergic Receptor Binding Assay, 125I-HEAT radio-ligand binding, transfected COS-7 cell membranes, α1a subtype
Conditions: average value, COS-7 membranes, read-out: Alpha 1 Ki α1a (1) Average Value
pKi: −log10 of the molar value.
Test Readout: pKi

[[record]]
compound = "CC(C)Oc1ccccc1N1CCN(CC2CC(CN3CCCCC3=O)=NO2)CC1 (stereo not shown) [Compound 1]"
assayed_target = "α1a-AR (Homo sapiens, UniProt P35348)"
data_value = 9.02

[[record]]
compound = "CC(C)Oc1ccccc1N1CCN(CC2CC(C(=O)N3CCc4ccc([N+](=O)[O-])cc43)=NO2)CC1 (stereo not shown) [Compound 11]"
assayed_target = "α1a-AR (Homo sapiens, UniProt P35348)"
data_value = 8.85

[[record]]
compound = "CC(C)Oc1ccccc1N1CCN(CC2CC(CN3CCc4ccc(N)cc43)=NO2)CC1 (stereo not shown) [Compound 6]"
assayed_target = "α1a-AR (Homo sapiens, UniProt P35348)"
data_value = 8.37

[[record]]
compound = "CC(C)Oc1ccccc1N1CCN(CC2CC(C(=O)N3CCCCC3)=NO2)CC1 (stereo not shown) [Compound 12]"
assayed_target = "α1a-AR (Homo sapiens, UniProt P35348)"
data_value = 8.74

[[record]]
compound = "CC(=O)N1CCc2ccc(NC(=O)C3=NOC(CN4CCN(c5ccccc5OC(C)C)CC4)C3)cc21 (stereo not shown) [Compound 24]"
assayed_target = "α1a-AR (Homo sapiens, UniProt P35348)"
data_value = 8.26

[[record]]
compound = "CC(C)Oc1ccccc1N1CCN(CC2CC(C(=O)N3CCC(Oc4ccccc4)CC3)=NO2)CC1 (single isomer, unassigned) [Compound 39]"
assayed_target = "α1a-AR (Homo sapiens, UniProt P35348)"
data_value = 8.80

[[record]]
compound = "CC(C)Oc1ccccc1N1CCN(CC2CC(CN3CCCCC3=O)=NO2)CC1 (single isomer, unassigned) [Compound 2]"
assayed_target = "α1a-AR (Homo sapiens, UniProt P35348)"
data_value = 9.10

